- Tested on: Aerobactin synthetase IucA (Klebsiella pneumoniae hvKP1)
- Protocol description: Biochemical IucA enzyme inhibition primary screen of the Spectrum library (AID 1346200);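 also: 100% = wells without compound and 0% = wells lacking enzyme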
- Condition set: malachite green pyrophosphate, A620, at 8 µM, active compounds read low
Reported activity remaining values follow for various compounds
Quantity: activity remaining (%)

CN(C/C=C/C#CC(C)(C)C)Cc1cccc2ccccc12	114
C[C@@H]1C(=O)OC2[C@H](O)C34[C@@H]5OC(=O)[C@@]3(O[C@@H]3OC(=O)[C@H](O)[C@@]34[C@H](C(C)(C)C)[C@H]5O)[C@]21O (stereo not given in full)	116
CC1(C)CC[C@]2(C(=O)O)CC[C@]3(C)C(=CCC4[C@@]5(C)CC[C@H](O)[C@@](C)(CO)C5CC[C@]43C)C2C1 (stereo not given in full)	97.3
CC1(C)C=CC(=O)[C@@]2(C)C1CC(=O)[C@]1(C)C2CC[C@@]2(C)[C@H](c3ccoc3)OC(=O)C3OC321 (stereo not given in full)	123
OCC(O)CN1CCN(c2ccccc2)CC1 (stereo not given)	107
CCN(CC)CCNC(=O)c1cc(S(C)(=O)=O)ccc1OC	120
CN(C)CCOC(c1ccccc1)c1ccccc1	105
CC(=O)N[C@@H](CS)C(=O)O	110
CCN(CC)CCCC(C)Nc1c2ccc(Cl)cc2nc2ccc(OC)cc12 (stereo not given)	93.4
CCc1cccc2c3c([nH]c12)C(CC)(CC(=O)O)OCC3 (stereo not given)	116

From: PubChem BioAssay
